System: 5α-reductase
Assay: 5α-reductase inhibitory efficacy: DHT produced in testosterone-stimulated dermal papilla cells (DHT ELISA)
Type: cell-based
Details: sample concentration 50 μg/ml, 50 nM testosterone, 24 hours, produced DHT relative to control
Please mark Met if the recorded 5α-reductase inhibitory rate (%) is equal to or greater than 30%, and Not met if it falls below.

Please review the following examples before continuing.
{"molecule": "CC1(C)CC[C@]2(C(=O)O)CC[C@]3(C)C(=CC[C@@H]4[C@@]5(C)CC[C@H](O)C(C)(C)[C@@H]5CC[C@]43C)[C@@H]2C1 [Compound in Example 22, oleanolic acid]", "label": "Not met"}
{"molecule": "CC(C)CCC[C@@H](C)[C@H]1CC[C@H]2[C@@H]3CC=C4C[C@@H](O)CC[C@]4(C)[C@H]3CC[C@]12C [Compound in Example 40, cholesterol]", "label": "Not met"}

Prompt line: Is 5α-reductase inhibitory rate (%) for CCCCCCCCOC1CCC2(C)C(CCC3(C)C2C(=O)C=C2C4CC(C)(C(=O)O)CCC4(C)CCC23C)C1(C)C (stereo not shown) [Compound in Example 66, O-octyl-glycyrrhetinic acid] at or above 30%?
Response line: Met

Prompt line: Entry CCCCCCCC(=O)OC1CCC2(C)C(CCC3(C)C2CC=C2C4CC(C)(C)CCC4(C(=O)O)CCC23C)C1(C)C (stereo not shown) [Compound in Example 24, oleanolic acid octanoate] please
Response line: Met

Prompt line: Entry CCCCCCCCOC1CCC2(C)C(CCC3(C)C2CC=C2C4CC(C)(C)CCC4(C(=O)O)CCC23C)C1(C)C (stereo not shown) [Compound in Example 61, O-octyl-oleanolic acid] please
Response line: Met

Prompt line: Entry CC(=O)OC1CCC2(C)C(CCC3(C)C2CC=C2C4C(C)C(C)CCC4(C)CCC23C)C1(C)C(=O)O (stereo not drawn) [Compound in Example 30, β-boswellic acid acetate] please
Response line: Not met

Prompt line: Entry CCCCCCCCOC1CCC2(C)C(CCC3(C)C2CC=C2C4C(C)C(C)CCC4(C)CCC23C)C1(C)C (stereo not drawn) [Compound in Example 55, O-octyl-α-amyrin] please
Response line: Met

Prompt line: Entry CC[C@H](CC[C@@H](C)[C@H]1CC[C@H]2[C@@H]3CC=C4C[C@@H](OC(C)=O)CC[C@]4(C)[C@H]3CC[C@]12C)C(C)C [Compound in Example 15, β-sitosterol acetate] please
Response line: Not met

Prompt line: Entry CC(=O)O[C@H]1CC[C@]2(C)[C@H]3CC=C4[C@@H]5CC(C)(C)CC[C@]5(C)CC[C@@]4(C)[C@]3(C)CC[C@H]2C1(C)C [Compound in Example 2, β-amyrin acetate] please
Response line: Met

Prompt line: Entry CC1(C)[C@@H](O)CC[C@]2(C)[C@H]3C(=O)C=C4[C@@H]5C[C@@](C)(C(=O)O)CC[C@]5(C)CC[C@@]4(C)[C@]3(C)CC[C@@H]12 [Compound in Example 34, glycyrrhetinic acid] please
Response line: Not met

====

Test system: 5α-reductase
Assay: 5α-reductase inhibitory efficacy: DHT produced in testosterone-stimulated dermal papilla cells (DHT ELISA)
Assay type: cell-based
Conditions: sample concentration 50 μg/ml, 50 nM testosterone, 24 hours, produced DHT relative to control
attribute.measured: 5α-reductase inhibitory rate (%)
Write it as a number; the unit % goes unstated.

# example entries with known answers
{"molecule": "C[C@H]1[C@H](C)CC[C@]2(C(=O)O)CC[C@]3(C)C(=CC[C@@H]4[C@@]5(C)CC[C@H](O)C(C)(C)[C@@H]5CC[C@]43C)[C@H]12 [Compound in Example 18, ursolic acid]", "5α-reductase inhibitory rate (%)": 29}
{"molecule": "CCCCCCCCCCCCCCCCCC(=O)O[C@H]1CC[C@@]2(C)C(=CC[C@H]3[C@@H]4CC[C@H]([C@H](C)CC[C@@H](CC)C(C)C)[C@@]4(C)CC[C@@H]32)C1 [Compound in Example 17, β-sitosterol stearate]", "5α-reductase inhibitory rate (%)": 42}
{"molecule": "CC(C)=CCC[C@@H](C)[C@H]1CC[C@H]2[C@@H]3CC=C4C[C@@H](O)CC[C@]4(C)[C@H]3CC[C@]12C [Compound in Example 38, desmosterol]", "5α-reductase inhibitory rate (%)": 31}
{"molecule": "CC(=O)O[C@H]1CC[C@]2(C)[C@H]3CC=C4[C@@H]5[C@@H](C)[C@H](C)CC[C@]5(C)CC[C@@]4(C)[C@]3(C)CC[C@H]2C1(C)C [Compound in Example 11, α-amyrin acetate]", "5α-reductase inhibitory rate (%)": 42}

Moving on to the next molecule.
Prompt line: Need 5α-reductase inhibitory rate (%) of COC1CCC2(C)C(CCC3(C)C2CC=C2C4CC(C)(C)CCC4(C)CCC23C)C1(C)C (stereo not drawn) [Compound in Example 50, O-methyl-β-amyrin] , thanks.
Response line: 31

====

Test system: 5α-reductase
Assay: 5α-reductase inhibitory efficacy: DHT produced in testosterone-stimulated dermal papilla cells (DHT ELISA)
Assay type: cell-based
Details: sample concentration 50 μg/ml, 50 nM testosterone, 24 hours, produced DHT relative to control
attribute.measured: 5α-reductase inhibitory rate (%)
Write it as a number; the unit % goes unstated.

{"molecule": "CCCCCCCCOC1CCC2(C)C(CCC3(C)C2CC=C2C4CC(C)(C)CCC4(C)CCC23C)C1(C)C (centres unmarked)", "value.observed": 43}
{"molecule": "CC(C)[C@@H](C)/C=C/[C@@H](C)[C@H]1CC[C@H]2[C@@H]3CC=C4C[C@@H](O)CC[C@]4(C)[C@H]3CC[C@]12C", "value.observed": 19}
{"molecule": "CCCCCCCC(=O)OC1CCC2(C)C(=CCC3C2CCC2(C)C(C(C)CCC(CC)C(C)C)CCC32)C1 (stereo not drawn) [Compound in Example 16, β-sitosterol octanoate]", "value.observed": 39}
{"molecule": "CCCCCCCCOC1CCC2(C)C(=CCC3C2CCC2(C)C(C(C)C=CC(CC)C(C)C)CCC32)C1 (centres unmarked)", "value.observed": 33}

Moving on to the next molecule.
Prompt line: Need 5α-reductase inhibitory rate (%) of CCCCCCCCCCCCCCCC(=O)O[C@H]1CC[C@]2(C)[C@H]3CC=C4[C@@H]5CC(C)(C)CC[C@]5(C)CC[C@@]4(C)[C@]3(C)CC[C@H]2C1(C)C [Compound in Example 7, β-amyrin palmitate] , thanks.
Response line: 67

====

Tested on: 5α-reductase
Experiment: 5α-reductase inhibitory efficacy: DHT produced in testosterone-stimulated dermal papilla cells (DHT ELISA)
Type: cell-based
Conditions: sample concentration 50 μg/ml, 50 nM testosterone, 24 hours, produced DHT relative to control
As shown below, each of these molecules has a reported 5α-reductase inhibitory rate (%) value.
Write it as a number; the unit % goes unstated.

{"molecule": "CCCCCCCCCCCCCCCCCC(=O)O[C@H]1CC[C@@]2(C)C(=CC[C@H]3[C@@H]4CC[C@H]([C@H](C)CC[C@@H](C)C(C)C)[C@@]4(C)CC[C@@H]32)C1 [Compound in Example 45, Campesterol stearate]", "5α-reductase inhibitory rate (%)": 43}

Moving on to the next molecule.
Prompt line: Need 5α-reductase inhibitory rate (%) of CC(C)=CC(=O)OC1CCC2(C)C(CCC3(C)C2CC=C2C4CC(C)(C)CCC4(C)CCC23C)C1(C)C (stereo not drawn) [Compound in Example 3, β-amyrin 3-methyl-2-butenate] , thanks.
Response line: 41

====

Tested on: 5α-reductase
Assay: 5α-reductase inhibitory efficacy: DHT produced in testosterone-stimulated dermal papilla cells (DHT ELISA)
Format: cell-based
Settings: sample concentration 50 μg/ml, 50 nM testosterone, 24 hours, produced DHT relative to control
Please mark class 1 if the recorded 5α-reductase inhibitory rate (%) is equal to or greater than 40%, and class 0 if it falls below.

{"compound": "CCCCCCCCCCCCCCCCCCO[C@H]1CC[C@@]2(C)C(=CC[C@H]3[C@@H]4CC[C@H]([C@H](C)CC[C@@H](CC)C(C)C)[C@@]4(C)CC[C@@H]32)C1", "label": "class 1"}

Prompt line: Is 5α-reductase inhibitory rate (%) for CCCCCCCCO[C@H]1CC[C@@]2(C)C(=CC[C@H]3[C@@H]4CC[C@H]([C@H](C)CCCC(C)C)[C@@]4(C)CC[C@@H]32)C1 at or above 40%?
Response line: class 1

Prompt line: Entry CCCCCCCC(=O)OC1CCC2(C)C(CCC3(C)C2CC=C2C4C(C)C(C)CCC4(C)CCC23C)C1(C)C (stereo not drawn) [Compound in Example 12, α-amyrin octanoate] please
Response line: class 1

Prompt line: Entry C/C=C(\CC[C@@H](C)[C@H]1CC[C@H]2[C@@H]3CC=C4C[C@@H](O)CC[C@]4(C)[C@H]3CC[C@]12C)C(C)C please
Response line: class 0

Prompt line: Entry CC1(C)CC[C@]2(C)CC[C@]3(C)C(=CC[C@@H]4[C@@]5(C)CC[C@H](O)C(C)(C)[C@@H]5CC[C@]43C)[C@@H]2C1 please
Response line: class 0

Prompt line: Entry CC(=O)OC1CCC2(C)C(CCC3(C)C2CC=C2C4CC(C)(C)CCC4(C)CCC23C)C1(C)C(=O)O (stereo not drawn) [Compound in Example 27, α-boswellic acid acetate] please
Response line: class 0

Prompt line: Entry CCCCCCCCOC1CCC2(C)C(=CCC3C2CCC2(C)C(C(C)C=CC(C)C(C)C)CCC32)C1 (stereo not shown) please
Response line: class 0

Prompt line: Entry CC(C)[C@H](C)CC[C@@H](C)[C@H]1CC[C@H]2[C@@H]3CC=C4C[C@@H](O)CC[C@]4(C)[C@H]3CC[C@]12C please
Response line: class 0
